Listed here are molecules together with their documented selectivity ratio.
test: Therapeutic ratio is expressed as ratio of optimal dose and minimum effective dose; assay type: ADME; details: mouse; read-out: TR
// return just the number, without any unit appended

Inquiry: Requested read-out: selectivity ratio. Entry: COC12[C@@H]3N[C@@H]3CN1C1=C(C(=O)C(N3CC3)=C(C)C1=O)[C@@H]2COC(N)=O (some centres not stated)
Reply text: 64

Inquiry: Requested read-out: selectivity ratio. Entry: COC12[C@@H]3N[C@@H]3CN1C1=C(C(=O)C(NCCCl)=C(C)C1=O)[C@@H]2COC(N)=O (some centres not stated)
Reply text: 8

Inquiry: Requested read-out: selectivity ratio. Entry: COC12[C@@H]3N[C@@H]3CN1C1=C(C(=O)C(NCc3cccnc3)=C(C)C1=O)[C@@H]2COC(N)=O (some centres not stated)
Reply text: 4

Inquiry: Requested read-out: selectivity ratio. Entry: COC12[C@@H](COC(N)=O)C3=C(C(=O)C(C)=C(N4CC4)C3=O)N1C[C@@H]1[C@H]2N1C (some centres not stated)
Reply text: 16

Inquiry: Requested read-out: selectivity ratio. Entry: COC(=O)CNC1=C(C)C(=O)C2=C(C1=O)[C@H](COC(N)=O)C1(OC)[C@@H]3N[C@@H]3CN21 (some centres not stated)
Reply text: 32

Inquiry: Requested read-out: selectivity ratio. Entry: C=CCNC1=C(C)C(=O)C2=C(C1=O)[C@H](COC(N)=O)C1(OC)[C@H]3[C@@H](CN21)N3C (some centres not stated)
Reply text: 4

Inquiry: Requested read-out: selectivity ratio. Entry: COC12[C@@H]3N[C@@H]3CN1C1=C(C(=O)C(NCc3ccc(S(N)(=O)=O)cc3)=C(C)C1=O)[C@@H]2COC(N)=O (some centres not stated)
Reply text: 4

Inquiry: Requested read-out: selectivity ratio. Entry: C#CCNC1=C(C)C(=O)C2=C(C1=O)[C@H](COC(N)=O)C1(OC)[C@H]3[C@@H](CN21)N3C (some centres not stated)
Reply text: 16

Inquiry: Requested read-out: selectivity ratio. Entry: COC12[C@@H]3N[C@@H]3CN1C1=C(C(=O)C(NCc3ccccc3)=C(C)C1=O)[C@@H]2COC(N)=O (some centres not stated)
Reply text: 8

====

assay: Therapeutic ratio is expressed as ratio of optimal dose and minimum effective dose; type: ADME; settings: mouse; read-out: TR
Listed here are compounds together with their documented selectivity ratio.

// known answers, use as guide
[[record]]
compound = "C#CC(C)(C)NC1=C(C)C(=O)C2=C(C1=O)[C@H](COC(N)=O)C1(OC)[C@@H]3N[C@@H]3CN21 (stereo not given in full)"
result = 16

[[record]]
compound = "COC12[C@@H](COC(N)=O)C3=C(C(=O)C(C)=C(NCCCl)C3=O)N1C[C@@H]1[C@H]2N1C (stereo not given in full)"
result = 8

[[record]]
compound = "C=C(C)CNC1=C(C)C(=O)C2=C(C1=O)[C@H](COC(N)=O)C1(OC)[C@@H]3N[C@@H]3CN21 (stereo not given in full)"
result = 16

[[record]]
compound = "COC12[C@@H]3N[C@@H]3CN1C1=C(C(=O)C(NCCCCl)=C(C)C1=O)[C@@H]2COC(N)=O (stereo not given in full)"
result = 2

[[record]]
compound = "COC12[C@@H](COC(N)=O)c3c(O)c(N=C4C=CC(=O)C=C4)c(C)c(O)c3N1C[C@@H]1[C@H]2N1C (stereo not given in full)"
result = 4


Inquiry: Requested read-out: selectivity ratio. Entry: C=C(Cl)CNC1=C(C)C(=O)C2=C(C1=O)[C@H](COC(N)=O)C1(OC)[C@@H]3N[C@@H]3CN21 (stereo not given in full)
Reply text: 8

Inquiry: Requested read-out: selectivity ratio. Entry: COC12[C@@H]3N[C@@H]3CN1C1=C(C(=O)C(N3CC3C)=C(C)C1=O)[C@@H]2COC(N)=O (stereo not given in full)
Reply text: 32

Inquiry: Requested read-out: selectivity ratio. Entry: COC12[C@@H]3N[C@@H]3CN1C1=C(C(=O)C(Nc3cccnc3)=C(C)C1=O)[C@@H]2COC(N)=O (stereo not given in full)
Reply text: > 16

Inquiry: Requested read-out: selectivity ratio. Entry: COC12[C@@H]3N[C@@H]3CN1C1=C(C(=O)C(NCC3CCCO3)=C(C)C1=O)[C@@H]2COC(N)=O (stereo not given in full)
Reply text: 64

Inquiry: Requested read-out: selectivity ratio. Entry: CO[C@@]12[C@H](COC(N)=O)C3=C(C(=O)C(C)=C(N)C3=O)N1C[C@H]1[C@@H]2N1C (stereo not given in full)
Reply text: 16
